Attribution: ChEMBL document CHEMBL4041509

# target.entity: ATP-dependent translocase ABCB1 (Homo sapiens)
# Sequence (P08183 whole entry): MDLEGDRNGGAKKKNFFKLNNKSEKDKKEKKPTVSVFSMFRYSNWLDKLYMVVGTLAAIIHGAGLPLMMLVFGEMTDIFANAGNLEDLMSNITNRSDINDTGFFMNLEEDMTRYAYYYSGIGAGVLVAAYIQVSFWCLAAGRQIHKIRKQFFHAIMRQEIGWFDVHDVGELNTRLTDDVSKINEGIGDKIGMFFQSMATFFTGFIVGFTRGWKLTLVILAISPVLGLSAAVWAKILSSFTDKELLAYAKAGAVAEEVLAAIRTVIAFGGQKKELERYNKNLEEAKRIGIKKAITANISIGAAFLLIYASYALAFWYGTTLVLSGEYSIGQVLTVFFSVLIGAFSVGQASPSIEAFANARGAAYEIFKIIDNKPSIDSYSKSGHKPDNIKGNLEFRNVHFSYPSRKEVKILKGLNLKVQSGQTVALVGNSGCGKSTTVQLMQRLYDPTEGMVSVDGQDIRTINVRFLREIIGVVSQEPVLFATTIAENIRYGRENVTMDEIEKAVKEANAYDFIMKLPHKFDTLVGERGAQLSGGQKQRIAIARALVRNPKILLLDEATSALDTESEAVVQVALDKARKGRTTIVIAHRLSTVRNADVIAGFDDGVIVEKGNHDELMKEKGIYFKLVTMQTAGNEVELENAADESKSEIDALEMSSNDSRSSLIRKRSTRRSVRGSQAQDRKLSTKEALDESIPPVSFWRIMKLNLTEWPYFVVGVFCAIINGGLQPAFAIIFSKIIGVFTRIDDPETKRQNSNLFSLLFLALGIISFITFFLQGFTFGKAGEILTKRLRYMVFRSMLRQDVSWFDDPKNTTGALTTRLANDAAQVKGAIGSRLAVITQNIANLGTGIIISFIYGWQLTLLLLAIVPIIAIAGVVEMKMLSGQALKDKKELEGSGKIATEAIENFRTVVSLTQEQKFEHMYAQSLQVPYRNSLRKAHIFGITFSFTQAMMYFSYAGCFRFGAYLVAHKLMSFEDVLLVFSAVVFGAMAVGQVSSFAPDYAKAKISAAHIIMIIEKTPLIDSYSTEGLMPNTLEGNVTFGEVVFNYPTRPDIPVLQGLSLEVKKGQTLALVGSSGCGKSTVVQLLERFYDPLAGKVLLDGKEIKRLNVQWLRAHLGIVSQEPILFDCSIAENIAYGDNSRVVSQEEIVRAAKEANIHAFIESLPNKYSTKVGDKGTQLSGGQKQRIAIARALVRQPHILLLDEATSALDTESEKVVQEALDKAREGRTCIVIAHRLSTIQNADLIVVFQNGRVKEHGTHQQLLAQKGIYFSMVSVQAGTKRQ
# protocol.summary: Inhibition of ABCB1 (unknown origin) expressed in Flp-In-293 cells assessed as increase in calcein-AM uptake at 10 uM preincubated for 30 mins followed by calcein-AM addition measured after 30 mins by fluorescence spectrometric method relative to control
# Type: cell-based
# study.conditions: 0.5 h
property.name: fold change (FC)

cpd.smiles	property.name	reading
COc1ccc(-c2cc(OCc3ccccc3)c3c(-c4cccs4)c(N)oc3c2)cc1	fold change (FC)	0.85
COc1ccc(-c2cc(OCCN3CCCC3)c3c(-c4cccs4)c(N)oc3c2)cc1	fold change (FC)	10.4
COc1ccc(-c2cc(OCc3cccnc3)c3c(-c4cccs4)c(N)oc3c2)cc1	fold change (FC)	4.72
COc1ccc(-c2cc(OCc3ncc(C)c(OC)c3C)c3c(-c4cccs4)c(N)oc3c2)cc1	fold change (FC)	8.38
COc1ccc(-c2cc(OCc3cccc(OC)c3)c3c(-c4cccs4)c(N)oc3c2)cc1	fold change (FC)	0.71
